- EXPERIMENTAL_SYSTEM: α1β2 GABAAR (Rattus norvegicus, UniProt P62813+P63138)
- Construct: full-length subunits in pcDNA3.1, co-transfected in HEK293T cells; GFP as separate marker; pentamer
- Sequence (P62813 28-455): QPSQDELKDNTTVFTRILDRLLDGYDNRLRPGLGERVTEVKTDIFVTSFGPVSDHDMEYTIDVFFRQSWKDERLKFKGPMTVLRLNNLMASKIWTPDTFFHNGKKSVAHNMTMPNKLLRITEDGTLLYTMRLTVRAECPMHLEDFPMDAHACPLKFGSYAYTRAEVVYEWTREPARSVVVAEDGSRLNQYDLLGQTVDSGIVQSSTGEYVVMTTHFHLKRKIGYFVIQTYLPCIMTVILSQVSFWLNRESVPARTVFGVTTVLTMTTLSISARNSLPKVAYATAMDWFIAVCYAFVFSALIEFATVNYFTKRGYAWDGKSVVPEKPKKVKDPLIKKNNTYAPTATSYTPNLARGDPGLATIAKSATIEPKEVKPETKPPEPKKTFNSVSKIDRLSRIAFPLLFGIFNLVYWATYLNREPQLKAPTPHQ
- Sequence (P63138 26-474): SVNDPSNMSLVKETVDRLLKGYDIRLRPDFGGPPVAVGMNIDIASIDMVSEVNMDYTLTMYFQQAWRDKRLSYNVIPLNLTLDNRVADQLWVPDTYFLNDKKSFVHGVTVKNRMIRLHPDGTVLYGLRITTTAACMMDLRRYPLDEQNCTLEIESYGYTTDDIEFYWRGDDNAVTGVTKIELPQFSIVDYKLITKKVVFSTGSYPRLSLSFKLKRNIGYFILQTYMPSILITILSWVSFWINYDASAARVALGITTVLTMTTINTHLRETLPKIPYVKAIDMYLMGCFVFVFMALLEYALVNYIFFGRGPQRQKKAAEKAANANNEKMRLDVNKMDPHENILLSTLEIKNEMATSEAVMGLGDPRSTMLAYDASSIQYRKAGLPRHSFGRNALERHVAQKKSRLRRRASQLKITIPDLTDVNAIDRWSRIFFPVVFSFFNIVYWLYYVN
- PROTOCOL: whole-cell patch clamp, inhibition of GABA-evoked current
METRIC_NAME: pIC50
Friendly reminder that pIC50 comes from taking -log10 of the concentration in mol/L.

For `O=c1cc(-c2ccc(O)c(O)c2)oc2cc(O)cc(O)c12` the compound record lists pIC50 as 4.97

* * *

- EXPERIMENTAL_SYSTEM: α5β2 GABAAR (Rattus norvegicus, UniProt P19969+P63138)
- Construct: full-length subunits in pcDNA3.1, co-transfected in HEK293T cells; GFP as separate marker; pentamer
- Sequence (P19969 26-464): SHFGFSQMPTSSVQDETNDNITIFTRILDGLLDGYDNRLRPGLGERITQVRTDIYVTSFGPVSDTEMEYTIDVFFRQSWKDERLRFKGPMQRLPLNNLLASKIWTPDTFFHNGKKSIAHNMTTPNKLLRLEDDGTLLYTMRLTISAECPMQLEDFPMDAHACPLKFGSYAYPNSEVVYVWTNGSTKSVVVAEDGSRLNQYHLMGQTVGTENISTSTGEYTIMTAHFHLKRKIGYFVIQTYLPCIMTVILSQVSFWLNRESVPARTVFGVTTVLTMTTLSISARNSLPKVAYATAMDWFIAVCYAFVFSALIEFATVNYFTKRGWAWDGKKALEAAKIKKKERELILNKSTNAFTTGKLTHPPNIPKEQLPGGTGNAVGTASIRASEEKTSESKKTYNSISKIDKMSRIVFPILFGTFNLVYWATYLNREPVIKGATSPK
- Sequence (P63138 26-474): as the sequence (P63138 26-474) above
- PROTOCOL: whole-cell patch clamp, inhibition of GABA-evoked current
METRIC_NAME: IC50 (µM)
Kindly answer with a numeric value in µM, unit omitted.

Sample `O=c1cc(-c2ccc(O)c(O)c2)oc2cc(O)cc(O)c12` ; IC50 observed: 25.4
